test system: Escherichia coli V14
result_type: MIC (mg/L)
The reply should contain only the number, in mg/L.

Example entries begin here.
CC1(C)S[C@@H]2[C@H](NC(=O)[C@H](N)c3ccccc3)C(=O)N2[C@H]1C(=O)O ... 1.56
CO[C@@]1(NC(=O)Cc2cccs2)C(=O)N2C(C(=O)O)=C(COC(N)=O)CS[C@@H]21 ... 3.12
CC(=O)OCOC(=O)C1=C(COC(C)=O)S[C@@H]2CC(=O)N12 ... 1.56

Below: the item to evaluate.
// lookup MIC for `CC(=O)OCOC(=O)C1=C(CSc2nnnn2C)S[C@@H]2CC(=O)N12`
0.78

* * *

test system: Escherichia coli RGN 238; assay: in vitro antibacterial activity (MIC); type: cell-based; conditions: RGN238, lactamase producer, read-out: MIC (minimal inhibitory concentration)
result_type: MIC (µg/mL)
The reply should contain only the number, in µg/mL.

CO[C@@]1(NC(=O)Cc2cccs2)C(=O)N2C(C(=O)O)=C(COC(N)=O)CS[C@@H]21 ... 3.12

// lookup MIC for CC(=O)OCC1=C(C(=O)O)N2C(=O)C(C(C)O)[C@H]2S1 (stereo partly shown)
0.78

Try `C[C@@H](O)[C@H]1C(=O)N2C(C(=O)O)=C(SCCN)C[C@H]12` next.
0.36

* * *

List of MIC tested on Escherichia coli R 6 K.
The reply should contain only the number, in µg/mL.

Example entries begin here.
C[C@@H](O)[C@H]1C(=O)N2C(C(=O)O)=C(SCCN)C[C@H]12 ... 0.78
CO[C@@]1(NC(=O)Cc2cccs2)C(=O)N2C(C(=O)O)=C(COC(N)=O)CS[C@@H]21 ... 3.1

Below: the item to evaluate.
Enter reported MIC observed with Escherichia coli R 6 K for CC(=O)OCC1=C(C(=O)O)N2C(=O)C(C(C)O)[C@H]2S1 (stereo partly shown)
0.78

* * *

List of MIC tested on Escherichia coli R 997.

CC(=O)OCC1=C(C(=O)O)N2C(=O)C(C(C)O)[C@H]2S1 (stereo partly shown) ... 0.78 µg/mL

// lookup MIC for `C[C@@H](O)[C@H]1C(=O)N2C(C(=O)O)=C(SCCN)C[C@H]12`
0.36 µg/mL

Try `CC1(C)S[C@@H]2[C@H](NC(=O)[C@H](N)c3ccccc3)C(=O)N2[C@H]1C(=O)O` next.
> 100 µg/mL

Try `CO[C@@]1(NC(=O)Cc2cccs2)C(=O)N2C(C(=O)O)=C(COC(N)=O)CS[C@@H]21` next.
6.25 µg/mL

* * *

system: Klebsiella pneumoniae ATCC 10031; test: in vitro antibacterial activity (MIC), second listing of the strain; type: cell-based; details: ATCC10031, collection strain (second listing), read-out: MIC (minimal inhibitory concentration)
The entries below are paired with their reported MIC.
The reply should contain only the number, in µg/mL.

Example entries begin here.
CO[C@@]1(NC(=O)Cc2cccs2)C(=O)N2C(C(=O)O)=C(COC(N)=O)CS[C@@H]21 ... 0.78
C[C@@H](O)[C@H]1C(=O)N2C(C(=O)O)=C(SCCN)C[C@H]12 ... 1.56
CC1(C)S[C@@H]2[C@H](NC(=O)[C@H](N)c3ccccc3)C(=O)N2[C@H]1C(=O)O ... 25

Below: the item to evaluate.
// lookup MIC for CC(=O)OCC1=C(C(=O)O)N2C(=O)C(C(C)O)[C@H]2S1 (stereo partly shown)
0.78
